Test: BSK_3C_VCAM1: BioMAP Diversity Plus: 3C Assay for Vascular cell adhesion molecule 1 (VCAM1) Biomarker Activity (AID 2282999)
Conditions: BioMAP 3C HUVEC, VCAM1 ELISA, cytokine-stimulated; actives raise or lower the signal
Calls of active or inactive are those of the source. The calls were made as follows: active = hit-call score of the fitted dose curve at least 0.9, where 1 is the maximum; inactive = score below 0.9.
PROPERTY LABEL: AC50

Completed entries (count: 6):
CCCCC(CC)COC(=O)CCCCC(=O)OCc1ccccc1 (stereo not given) :: inactive
CCCCC(CC)COC(=O)CCCCC(=O)OCC(CC)CCCC (stereo not given) :: inactive
Cc1cc(C)c(O)c(C)c1 :: inactive
C#C[C@]1(O)CC[C@H]2[C@@H]3CCC4=CC(=O)CC[C@@H]4[C@H]3CC[C@@]21C :: inactive
OC1CCC(C2CCCCC2)CC1 (stereo not given) :: inactive
O=C(O)c1ccccc1C(c1ccc(O)cc1)c1ccc(O)cc1 :: inactive

[ask] Query (molecule): CC(C)(C)c1ccc(O)c(C(C)(C)C)c1 ; field requested: AC50
[reply] 12.4 µM (active)

[ask] Query (molecule): CCC(=C(c1ccc(O)cc1)c1ccc(OCCN(C)C)cc1)c1ccccc1 ; field requested: AC50
[reply] 11.9 µM (active)

[ask] Query (molecule): NCC(F)(F)C(F)(F)C(F)(F)C(F)(F)C(F)(F)C(F)(F)C(F)(F)F ; field requested: AC50
[reply] inactive

[ask] Query (molecule): CCCCCCCCCCCCCCCS(=O)(=O)Oc1ccccc1 ; field requested: AC50
[reply] inactive

---

Target: Myc proto-oncogene protein (Homo sapiens) (UniProt P01106)
Sequence (P01106 whole entry, looked up): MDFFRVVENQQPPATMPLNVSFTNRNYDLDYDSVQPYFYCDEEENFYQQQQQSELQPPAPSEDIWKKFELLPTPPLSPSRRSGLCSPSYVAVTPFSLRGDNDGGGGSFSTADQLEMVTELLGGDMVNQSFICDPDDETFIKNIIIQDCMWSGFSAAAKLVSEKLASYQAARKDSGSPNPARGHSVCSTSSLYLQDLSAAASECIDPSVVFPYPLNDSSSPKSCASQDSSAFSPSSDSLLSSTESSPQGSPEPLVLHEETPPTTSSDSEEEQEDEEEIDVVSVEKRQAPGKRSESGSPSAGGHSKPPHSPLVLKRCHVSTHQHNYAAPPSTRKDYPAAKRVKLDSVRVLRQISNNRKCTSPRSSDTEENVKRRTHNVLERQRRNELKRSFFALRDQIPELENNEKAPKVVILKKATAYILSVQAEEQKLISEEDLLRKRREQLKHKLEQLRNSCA
Assay: ATG_Myc_CIS: Attagene CIS-FACTORIAL HepG2 Assay for human Myelocytomatosis (Myc) Proto-Oncogene Transcription Factor (AID 2282990)
Settings: HepG2, Attagene cis-reporter transcription factor activity; actives raise or lower the signal
Calls of active or inactive are those of the source. Rule for the calls: active = hit-call score of the fitted dose curve at least 0.9, where 1 is the maximum; inactive = score below 0.9.
Outcome (select one): 1 (active), -1 (inactive)

CC(C)(C)c1cccc(C(C)(C)C)c1O :: 1
CCCCCCCCCCCCCC[N+](C)(C)C :: -1
c1ccc2cc3c(ccc4ccccc43)cc2c1 :: -1
CN(C)C=O :: -1
CN1CCN(c2ccccc2/C=C2\SCCN(c3ccc(Cl)c(Cl)c3)C2=O)CC1 :: -1
COc1ccc([N+](=O)[O-])cc1N :: -1
CCCOC(=O)c1ccc(O)cc1 :: -1
O=C1OC2(c3ccccc31)c1cc(Br)c(O)c(Br)c1Oc1c2cc(Br)c(O)c1Br :: -1
O=C(/C=C/c1ccc(O)cc1)CC(=O)/C=C/c1ccc(O)cc1 :: -1
Cc1cc(C)c(O)c(C)c1 :: -1

[ask] For CCCCC(CC)COC(=O)CCCCC(=O)OCc1ccccc1 (stereo not drawn) , what call appears in the results of this test?
[reply] -1

---

Read-out: Hypoxia-inducible factor 1-alpha (Homo sapiens) (UniProt Q16665)
Sequence (Q16665 whole entry, looked up): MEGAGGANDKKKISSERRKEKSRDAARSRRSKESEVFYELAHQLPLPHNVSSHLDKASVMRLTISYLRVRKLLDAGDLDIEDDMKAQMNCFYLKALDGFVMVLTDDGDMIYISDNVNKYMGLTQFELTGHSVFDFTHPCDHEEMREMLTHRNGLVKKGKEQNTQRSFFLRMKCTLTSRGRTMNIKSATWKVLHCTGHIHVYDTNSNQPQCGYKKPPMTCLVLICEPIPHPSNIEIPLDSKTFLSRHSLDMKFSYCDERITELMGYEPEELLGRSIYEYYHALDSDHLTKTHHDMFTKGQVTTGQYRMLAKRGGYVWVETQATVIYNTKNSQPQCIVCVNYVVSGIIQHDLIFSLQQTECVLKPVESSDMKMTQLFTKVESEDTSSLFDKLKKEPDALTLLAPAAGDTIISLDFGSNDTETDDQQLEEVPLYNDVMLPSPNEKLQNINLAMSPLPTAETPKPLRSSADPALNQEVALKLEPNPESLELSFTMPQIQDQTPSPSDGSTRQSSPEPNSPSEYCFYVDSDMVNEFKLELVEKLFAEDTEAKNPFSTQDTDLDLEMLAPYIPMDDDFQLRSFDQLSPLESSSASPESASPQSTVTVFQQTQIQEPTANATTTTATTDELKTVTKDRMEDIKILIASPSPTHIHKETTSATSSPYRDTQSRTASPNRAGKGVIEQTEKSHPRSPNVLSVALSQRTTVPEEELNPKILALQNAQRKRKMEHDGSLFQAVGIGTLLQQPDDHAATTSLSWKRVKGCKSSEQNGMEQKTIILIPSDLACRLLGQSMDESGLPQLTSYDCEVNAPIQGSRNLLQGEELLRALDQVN
Experiment: LTEA_HepaRG_HIF1A: Life Technologies and Expression Analysis (LTEA) Assay for Hypoxia-inducible factor 1 (HIF1A) Trancription factor using HepaRG (AID 2283503);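 also: HIF1A transcript by TaqMan qRT-PCR normalized to ACTB GAPDH and POLR2A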
Details: mRNA level, 48 h; actives raise or lower the signal
Active and inactive are the calls of the source. The calls were made as follows: active = hit-call score of the fitted dose curve at least 0.9, where 1 is the maximum; inactive = score below 0.9.
Outcome (select one): TRUE (active), FALSE (inactive)

Worked set:
CCCCC(CC)COC(=O)CCCCC(=O)OCC(CC)CCCC (stereo not given) :: FALSE
CCCOC(=O)c1ccc(O)cc1 :: FALSE
Cc1cc(C)c(O)c(C)c1 :: FALSE
C=C(C)C(=O)OCCC(F)(F)C(F)(F)C(F)(F)C(F)(F)C(F)(F)C(F)(F)F :: FALSE

[ask] For CC(C)CCCCCCOC(=O)CCCCC(=O)OCCCCCCC(C)C , what call appears in the results of this test?
[reply] FALSE

[ask] For CCCCOCCO , what call appears in the results of this test?
[reply] FALSE
